Measured values drawn from paper PMC10866937 for this set.

# target.of.assay: SARS-CoV-2 nucleocapsid protein (NP) (SARS-CoV-2 (WT), UniProt P0DTC9 1-419)
# test.protocol: CE
# assay.conditions: protein: commercial; label: FAM in CE
property: binding result

Some entries whose results are on file:
{"binder": "AGGGGGGACATCTGGAGTGTTGGCCGTGCGGATACG (ssDNA) [Seq-1022]", "binding result": "binds"}
{"binder": "ACTCCCACCTTTATTGAGGGCGGTGACGGGTTCCCTC (ssDNA) [Seq-59]", "binding result": "binds"}
{"binder": "AGGGGGGACACCTAGATTGTTGGCCGTGCGGATACG (ssDNA) [Seq-333]", "binding result": "binds"}
{"binder": "TCCACGGTCGGTCCCCTTACCACTGGTCCCTTTGTC (ssDNA) [Seq-4650]", "binding result": "binds"}

Proceed to the following item.
### Prompt Need binding result of CACCTCTCACCCCACGGTTCTGGTCCTTCCCCGACG (ssDNA) [Seq-1280] , thanks.
### Response binds
